I'd be grateful if you could share measured MIC for these entries.
Tested on: Citrobacter freundii
assay procedure: Antimicrobial activity against Citrobacter freundii SZ63T expressing IMP-4, qnrS1by CLSI method
Assay type: functional
Give just the number in µg/mL; leave the unit off.

IN: MIC lookup needed for `C[C@@H](O)[C@H]1C(=O)N2C(C(=O)O)=C(S[C@@H]3CN[C@H](C(=O)Nc4cccc(C(=O)O)c4)C3)[C@H](C)[C@H]12` , thanks.
OUT: 4

IN: // returns reported MIC for input C[C@@H](O)[C@H]1C(=O)N2C(C(=O)O)=C(S[C@@H]3CN[C@H](C(=O)N(C)C)C3)[C@H](C)[C@H]12 [MEROPENEM]
OUT: 4

IN: Fill blank: measured MIC of the molecule CO/N=C(\C(=O)N[C@@H]1C(=O)N2C(C(=O)O)=C(COC(C)=O)CS[C@H]12)c1csc(N)n1 [CEFOTAXIME] is ____.
OUT: 256

IN: Param item = CN(C)c1cc(NC(=O)CNC(C)(C)C)c(O)c2c1C[C@H]1C[C@H]3[C@H](N(C)C)C(O)=C(C(N)=O)C(=O)[C@@]3(O)C(O)=C1C2=O [TIGECYCLINE] ; retrieve measured MIC.
OUT: 0.13

IN: Which MIC is listed for C[C@@H](O)[C@H]1C(=O)N2C(C(=O)O)=C(SCCNC=N)C[C@H]12 [IMIPENEM ANHYDROUS] ?
OUT: 4

---

Tested on: Klebsiella pneumoniae
assay procedure: Antimicrobial activity against carbapenem-resistant Klebsiella pneumoniae FZ47 deficient in IMP-8, TEM-1, SHV-11, CTX-M-14, qnrB2, aac(6')-Ib, ompK35/36 by CLSI method
Type: functional
readout name: MIC (µg/mL)
Give the quantity in µg/mL, number only.

IN: What value of MIC on Klebsiella pneumoniae does `CN(C)c1cc(NC(=O)CNC(C)(C)C)c(O)c2c1C[C@H]1C[C@H]3[C@H](N(C)C)C(O)=C(C(N)=O)C(=O)[C@@]3(O)C(O)=C1C2=O` have?
OUT: 1

IN: Under Klebsiella pneumoniae: MIC value of `C[C@@H](O)[C@H]1C(=O)N2C(C(=O)O)=C(S[C@@H]3CN[C@H](C(=O)Nc4cccc(C(=O)O)c4)C3)[C@H](C)[C@H]12` ?
OUT: 8

IN: Item `C[C@@H](O)[C@H]1C(=O)N2C(C(=O)O)=C(S[C@@H]3CN[C@H](C(=O)N(C)C)C3)[C@H](C)[C@H]12` with Klebsiella pneumoniae - MIC?
OUT: 2

---

Please provide measured MIC for the entries that follow.
System: Klebsiella pneumoniae
assay procedure: Antimicrobial activity against Klebsiella pneumoniae ZJ68T expressing CTX-M-15 by CLSI method
Format: functional
Only the number, expressed in µg/mL, is required.

IN: # get_value(readout='MIC', item= `C[C@@H](O)[C@H]1C(=O)N2C(C(=O)O)=C(S[C@@H]3CN[C@H](C(=O)Nc4cccc(C(=O)O)c4)C3)[C@H](C)[C@H]12` )
OUT: 0.064

IN: Name the recorded MIC for `CC(C)(O/N=C(\C(=O)N[C@@H]1C(=O)N2C(C(=O)[O-])=C(C[n+]3ccccc3)CS[C@H]12)c1csc(N)n1)C(=O)O` .
OUT: 256

IN: What MIC value was documented for this molecule, `CN(C)c1cc(NC(=O)CNC(C)(C)C)c(O)c2c1C[C@H]1C[C@H]3[C@H](N(C)C)C(O)=C(C(N)=O)C(=O)[C@@]3(O)C(O)=C1C2=O` ?
OUT: 0.064

IN: Reported MIC, molecule `CO[C@@]1(NC(=O)Cc2cccs2)C(=O)N2C(C(=O)O)=C(COC(N)=O)CS[C@@H]21` : ____
OUT: 16
